As an illustration, consider measured IC50 for compounds on histamine H1 receptors (Rattus norvegicus, UniProt P31390).
Sequence (P31390 whole entry): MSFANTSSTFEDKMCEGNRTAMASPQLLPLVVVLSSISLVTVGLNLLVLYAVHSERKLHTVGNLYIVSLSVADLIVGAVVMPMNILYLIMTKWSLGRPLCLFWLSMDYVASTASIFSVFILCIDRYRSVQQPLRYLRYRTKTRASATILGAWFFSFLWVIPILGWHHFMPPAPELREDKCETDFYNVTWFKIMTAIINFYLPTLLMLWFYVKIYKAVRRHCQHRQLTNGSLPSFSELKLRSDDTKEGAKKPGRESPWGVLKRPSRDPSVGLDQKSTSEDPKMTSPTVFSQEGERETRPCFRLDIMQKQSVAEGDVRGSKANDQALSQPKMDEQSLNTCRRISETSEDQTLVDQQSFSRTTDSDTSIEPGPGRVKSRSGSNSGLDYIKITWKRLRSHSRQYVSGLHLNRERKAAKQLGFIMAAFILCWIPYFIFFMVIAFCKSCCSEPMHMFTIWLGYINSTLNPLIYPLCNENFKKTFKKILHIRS

# Compound, Recorded result
measured = [
    ("O=C1Cc2cc(CCN3CCN(c4nsc5ccccc45)CC3)c(Cl)cc2N1 [Ziprasidone]", "150 nM"),
]

Simply: O=C1CCc2ccc(OCCCCN3CCN(c4cccc(Cl)c4Cl)CC3)cc2N1 [Aripipirazole] , histamine H1 receptors (Rattus norvegicus, UniProt P31390), IC50 = > 3000 nM
